Test system: GL261
Assay: brain tumor cell line growth inhibition, GL261
Format: cell-based
Conditions: GL261, mouse glioblastoma

# smilesEntry, IC50, nM
data = [
    ("O=C(Cc1ccc(-c2ccc(OCCN3CCOCC3)cc2)cn1)NCc1ccccc1", 13.7),
    ("O=C(Cc1ccc(-c2ccc(N3CCOCC3)cc2)cn1)NCc1cccc(F)c1", 8.8),
]

====

Assay: plasma and brain exposure after single oral dose
Assay type: in vivo, Male CD-1 Mice
Details: male, CD-1, mouse, brain, po, 50 mg/kg, PO 50 mg/kg (Group 4); 2 hr; read-out: Brain Concentrations, Mean

# smilesEntry, concentration at 2 h [ng/g]
data = [
    ("O=C(Cc1ccc(-c2ccc(N3CCOCC3)cc2)cn1)NCc1cccc(F)c1", 758),
]

====

Assay: plasma and brain exposure after single oral dose
Type: in vivo, Male CD-1 Mice
Details: male, CD-1, mouse, brain, po, 10 mg/kg, PO 10 mg/kg (Group 3); 2 hr; read-out: Brain Concentrations, Mean

# smilesEntry, concentration at 2 h [ng/g]
measured = [
    ("O=C(Cc1ccc(-c2ccc(N3CCOCC3)cc2)cn1)NCc1cccc(F)c1", 175),
]

====

Test: plasma and brain exposure after single oral dose
Format: in vivo, Male CD-1 Mice
Conditions: male, CD-1, mouse, plasma, po, 50 mg/kg, PO 50 mg/kg (Group 4); 0.5 hr; read-out: Plasma Concentrations, Mean
property: concentration at 0.5 h

# smilesEntry, measured
measured = [
    ("O=C(Cc1ccc(-c2ccc(N3CCOCC3)cc2)cn1)NCc1cccc(F)c1", "1800 ng/mL"),
]

====

Assay: plasma and brain exposure after single oral dose
Assay type: in vivo, Male CD-1 Mice
Settings: male, CD-1, mouse, plasma, po, 50 mg/kg, PO 50 mg/kg (Group 4); 1 hr; read-out: Plasma Concentrations, Mean
property: concentration at 1 h

# smilesEntry, measured
measured = [
    ("O=C(Cc1ccc(-c2ccc(N3CCOCC3)cc2)cn1)NCc1cccc(F)c1", "2140 ng/mL"),
]

====

Assay: plasma and brain exposure after single oral dose
Assay type: in vivo, Male CD-1 Mice
Details: male, CD-1, mouse, brain, po, 10 mg/kg, PO 10 mg/kg (Group 3); 5 hr; single values; read-out: Brain Concentrations, Group A, B, C

# molecule, unitInfo, concentration at 5 h
data = [
    ("O=C(Cc1ccc(-c2ccc(N3CCOCC3)cc2)cn1)NCc1cccc(F)c1 [Compound 76]", "ng/g", 47.5),
]

====

Experiment: plasma and brain exposure after single oral dose
Type: in vivo, Male CD-1 Mice
Details: male, CD-1, mouse, brain, po, 10 mg/kg, PO 10 mg/kg (Group 3); 1 hr; single values; read-out: Brain Concentrations, Group A, B, C

# smilesEntry, concentration at 1 h, ng/g
measured = [
    ("O=C(Cc1ccc(-c2ccc(N3CCOCC3)cc2)cn1)NCc1cccc(F)c1", 228),
]

====

Test: plasma and brain exposure after single oral dose
Assay type: in vivo, Male CD-1 Mice
Settings: male, CD-1, mouse, brain, po, 10 mg/kg, PO 10 mg/kg (Group 3); 1 hr; read-out: Brain Concentrations, Mean
Protocol: […] The concentration of Compound 76 was measured in plasma and in brain tissue homogenates. Plasma concentrations were measured in mice after oral administration. All doses were formulated in purified water. Four groups of male CD-1 mice were dosed after an overnight fast and fed 4 hours post-dose. Dosing was as follows: Protein was precipitated with 0.25 mL acetonitrile for plasma, 0.25 mL for brain. […] The limit of quantitation was 1 ng/mL using a 50 μL aliquot for plasma and a 504 aliquot for brain. […]

# smilesEntry, concentration at 1 h (ng/g)
data = [
    ("O=C(Cc1ccc(-c2ccc(N3CCOCC3)cc2)cn1)NCc1cccc(F)c1", 279),
]

====

Assay: plasma and brain exposure after single oral dose
Type: in vivo, Male CD-1 Mice
Details: male, CD-1, mouse, plasma, po, 10 mg/kg, PO 10 mg/kg (Group 3); 0.5 hr; read-out: Plasma Concentrations, Mean

# molecule, unitInfo, concentration at 0.5 h
rows = [
    ("O=C(Cc1ccc(-c2ccc(N3CCOCC3)cc2)cn1)NCc1cccc(F)c1 [Compound 76]", "ng/mL", 148),
]

====

Assay: plasma and brain exposure after single oral dose
Type: in vivo, Male CD-1 Mice
Conditions: male, CD-1, mouse, brain and plasma; oral 50 mg/kg; read-out: AUClast Brain/AUClast Plasma Ratio
property: Kp

# molecule, measured
rows = [
    ("O=C(Cc1ccc(-c2ccc(N3CCOCC3)cc2)cn1)NCc1cccc(F)c1 [Compound 76]", 0.61),
]

====

Experiment: plasma and brain exposure after single oral dose
Type: in vivo, Male CD-1 Mice
Conditions: male, CD-1, mouse, brain, po, 10 mg/kg, PO 10 mg/kg (Group 3); 5 hr; BLQ = 0; read-out: Brain Concentrations, Mean
Method: […] The concentration of Compound 76 was measured in plasma and in brain tissue homogenates. Plasma concentrations were measured in mice after oral administration. All doses were formulated in purified water. Four groups of male CD-1 mice were dosed after an overnight fast and fed 4 hours post-dose. Dosing was as follows: Protein was precipitated with 0.25 mL acetonitrile for plasma, 0.25 mL for brain. […] The limit of quantitation was 1 ng/mL using a 50 μL aliquot for plasma and a 504 aliquot for brain. […]

# smilesEntry, concentration at 5 h
records = [
    ("O=C(Cc1ccc(-c2ccc(N3CCOCC3)cc2)cn1)NCc1cccc(F)c1", "31.8 ng/g"),
]

====

Assay: plasma and brain exposure after single oral dose
Type: in vivo, Male CD-1 Mice
Conditions: male, CD-1, mouse, plasma, po, 10 mg/kg, PO 10 mg/kg (Group 3); 0 hr; BLQ = 0; read-out: Plasma Concentrations, Mean

# compound, concentration at 0 h, ng/mL
rows = [
    ("O=C(Cc1ccc(-c2ccc(N3CCOCC3)cc2)cn1)NCc1cccc(F)c1 [Compound 76]", 0),
]

====

Experiment: plasma and brain exposure after single oral dose
Type: in vivo, Male CD-1 Mice
Conditions: male, CD-1, mouse, plasma, po, 50 mg/kg, PO 50 mg/kg (Group 4); 0.5 hr; single values; read-out: Plasma Concentrations, Group A, B, C

# molecule, concentration at 0.5 h, ng/mL
measured = [
    ("O=C(Cc1ccc(-c2ccc(N3CCOCC3)cc2)cn1)NCc1cccc(F)c1 [Compound 76]", 1490),
]

====

Assay: plasma and brain exposure after single oral dose
Type: in vivo, Male CD-1 Mice
Settings: male, CD-1, mouse, po; Brain; single dose of 50 mg/kg (Group 4)

# smilesEntry, Cmax / ng/g
measured = [
    ("O=C(Cc1ccc(-c2ccc(N3CCOCC3)cc2)cn1)NCc1cccc(F)c1", 1380),
]

====

Each entry below lists one item and its recorded pIC50 value.
System: SW1088
Assay: brain tumor cell line growth inhibition, SW1088
Type: cell-based
Details: Homo sapiens; SW1088, astrocytoma
pIC50: −log10 of the molar value.
property: pIC50

# smilesEntry, targetDesc, property, measured
records = [
    ("O=C(Cc1ccc(-c2ccc(N3CCOCC3)cc2)cn1)NCc1cccc(F)c1", "SW1088", "pIC50", 7.66),
    ("O=C(Cc1ccc(-c2ccc(OCCN3CCOCC3)cc2)cn1)NCc1ccccc1", "SW1088", "pIC50", 7.12),
]

====

Assay: plasma and brain exposure after single oral dose
Type: in vivo, Male CD-1 Mice
Settings: male, CD-1, mouse, brain, po, 50 mg/kg, PO 50 mg/kg (Group 4); 1 hr; read-out: Brain Concentrations, Mean
Experimental: […] The concentration of Compound 76 was measured in plasma and in brain tissue homogenates. Plasma concentrations were measured in mice after oral administration. All doses were formulated in purified water. Four groups of male CD-1 mice were dosed after an overnight fast and fed 4 hours post-dose. Dosing was as follows: Protein was precipitated with 0.25 mL acetonitrile for plasma, 0.25 mL for brain. […] The limit of quantitation was 1 ng/mL using a 50 μL aliquot for plasma and a 504 aliquot for brain. […]

# compound, unitInfo, concentration at 1 hr
rows = [
    ("O=C(Cc1ccc(-c2ccc(N3CCOCC3)cc2)cn1)NCc1cccc(F)c1 [Compound 76]", "ng/g", 1100),
]

====

Assay: plasma and brain exposure after single oral dose
Assay type: in vivo, Male CD-1 Mice
Conditions: male, CD-1, mouse, plasma, po, 50 mg/kg, PO 50 mg/kg (Group 4); 0 hr; BLQ = 0; read-out: Plasma Concentrations, Mean

# molecule, concentration at 0 h [ng/mL]
rows = [
    ("O=C(Cc1ccc(-c2ccc(N3CCOCC3)cc2)cn1)NCc1cccc(F)c1 [Compound 76]", 0),
]

====

Test: plasma and brain exposure after single oral dose
Assay type: in vivo, Male CD-1 Mice
Conditions: male, CD-1, mouse, po; Plasma; single dose of 50 mg/kg (Group 4)
Method: […] The concentration of Compound 76 was measured in plasma and in brain tissue homogenates. Plasma concentrations were measured in mice after oral administration. All doses were formulated in purified water. Four groups of male CD-1 mice were dosed after an overnight fast and fed 4 hours post-dose. Dosing was as follows: Protein was precipitated with 0.25 mL acetonitrile for plasma, 0.25 mL for brain. […] The limit of quantitation was 1 ng/mL using a 50 μL aliquot for plasma and a 504 aliquot for brain. […]
property: Cmax (ng/mL)

# smilesEntry, measured
rows = [
    ("O=C(Cc1ccc(-c2ccc(N3CCOCC3)cc2)cn1)NCc1cccc(F)c1", 2140),
]
